Entry source: patent US6500842B1

- SYSTEM: CMV polymerase (Human cytomegalovirus)
- Construct: made in house; host or cells: recombinant baculovirus-infected SF-9 cells
- PROTOCOL_SUMMARY: modified version of the HCMV polymerase assay (100% DMSO dilution, DTT, different enzyme lot)
- Assay type: biochemical
- PARTICULARS: Concentration 50 uM; Table 3
The compounds listed here are annotated with their inhibition at 50 µM.
Return type: number; implicit unit %.

Reference set (5 entries):
INSERT INTO measurements (compound, recorded_result) VALUES
  ('Cc1ccc2c(Cl)cc(S(=O)(=O)NCCCN3CCOCC3)c(O)c2n1 [Example 36]', 15),
  ('Cc1ccc2c(Cl)cc(S(=O)(=O)N[C@@H](C)c3ccccc3)c(O)c2n1 [Example 40]', 80),
  ('Cc1ccc2c(Cl)cc(S(=O)(=O)NCCOc3ccccc3)c(O)c2n1 [Example 35]', 89),
  ('Cc1ccc2c(Cl)cc(S(=O)(=O)N[C@H](C)c3ccccc3)c(O)c2n1 [Example 39]', 79),
  ('Cc1ccc2c(Cl)cc(S(=O)(=O)NCCCn3ccnc3)c(O)c2n1 [Example 37]', 50);

[Q] Query: inhibition at 50 µM; subject: Cc1ccc2c(Cl)cc(S(=O)(=O)NCCCc3ccccc3)c(O)c2n1 [Example 34]
[A] 54

[Q] Give the measured inhibition at 50 µM of Cc1ccc2c(Cl)cc(S(=O)(=O)NC(c3ccccc3)c3ccccc3)c(O)c2n1 [Example 38] .
[A] 96

* * *

- SYSTEM: CMV polymerase (Human cytomegalovirus)
- Construct: made in house; host or cells: recombinant baculovirus-infected SF-9 cells
- PROTOCOL_SUMMARY: modified version of the HCMV polymerase assay (100% DMSO dilution, DTT, different enzyme lot)
- Type: biochemical
- PARTICULARS: Concentration 100 uM; Table 3
Catalogue of inhibition at 100 µM readings, one per entry.
Units required after the number.

Consider the worked cases shown below.
INSERT INTO measurements (item_smiles, system, recorded_result) VALUES
  ('Cc1ccc2c(Cl)cc(S(=O)(=O)NCCCn3ccnc3)c(O)c2n1', 'CMV polymerase (Human cytomegalovirus)', '55%'),
  ('Cc1ccc2c(Cl)cc(S(=O)(=O)NCCCc3ccccc3)c(O)c2n1', 'CMV polymerase (Human cytomegalovirus)', '97%'),
  ('Cc1ccc2c(Cl)cc(S(=O)(=O)NCCCN3CCOCC3)c(O)c2n1', 'CMV polymerase (Human cytomegalovirus)', '3%'),
  ('Cc1ccc2c(Cl)cc(S(=O)(=O)N[C@@H](C)c3ccccc3)c(O)c2n1', 'CMV polymerase (Human cytomegalovirus)', '94%');

[Q] Requested field: inhibition at 100 µM. Item: Cc1ccc2c(Cl)cc(S(=O)(=O)NC(c3ccccc3)c3ccccc3)c(O)c2n1
[A] 97%

[Q] Fill in the blank: the reported inhibition at 100 µM of Cc1ccc2c(Cl)cc(S(=O)(=O)NCCOc3ccccc3)c(O)c2n1 is ____.
[A] 96%

[Q] Quick one: inhibition at 100 µM of Cc1ccc2c(Cl)cc(S(=O)(=O)N[C@H](C)c3ccccc3)c(O)c2n1 ?
[A] 71%

* * *

- SYSTEM: HCMV polymerase (Human cytomegalovirus)
- Construct: made in house; host or cells: recombinant baculovirus-infected SF-9 cells
- PROTOCOL_SUMMARY: HCMV polymerase assay (scintillation proximity assay)
- Format: biochemical
- PARTICULARS: Table 10; CMV pol Assay; read-out: IC50
pIC50 values for the compounds below.
// returns pIC50 (minus log10 of molar concentration), number only

Below: 3 compounds and their reported pIC50.
INSERT INTO assay_data (compound, recorded_result) VALUES
  ('COc1cc(Cl)c(C)cc1NC(=O)c1ccc2cccnc2c1O', 5.10),
  ('O=C(Nc1cc([N+](=O)[O-])cc([N+](=O)[O-])c1)c1ccc2cccnc2c1O', 5.15),
  ('CCCc1ccc(NC(=O)c2ccc3cccnc3c2O)cc1', 5.51);

[Q] Which pIC50 is listed for Cc1ccc(F)cc1NC(=O)c1ccc2cccnc2c1O [drawing 222] ?
[A] 4.83

[Q] Would you kindly share the measured pIC50 for COc1ccc(Cl)c(NC(=O)c2ccc3cccnc3c2O)c1 ?
[A] 5.15

* * *

- SYSTEM: HCMV polymerase (Human cytomegalovirus, UniProt P08546)
- Construct: made in house; host or cells: recombinant baculovirus-infected SF-9 cells
- Sequence (P08546 whole entry): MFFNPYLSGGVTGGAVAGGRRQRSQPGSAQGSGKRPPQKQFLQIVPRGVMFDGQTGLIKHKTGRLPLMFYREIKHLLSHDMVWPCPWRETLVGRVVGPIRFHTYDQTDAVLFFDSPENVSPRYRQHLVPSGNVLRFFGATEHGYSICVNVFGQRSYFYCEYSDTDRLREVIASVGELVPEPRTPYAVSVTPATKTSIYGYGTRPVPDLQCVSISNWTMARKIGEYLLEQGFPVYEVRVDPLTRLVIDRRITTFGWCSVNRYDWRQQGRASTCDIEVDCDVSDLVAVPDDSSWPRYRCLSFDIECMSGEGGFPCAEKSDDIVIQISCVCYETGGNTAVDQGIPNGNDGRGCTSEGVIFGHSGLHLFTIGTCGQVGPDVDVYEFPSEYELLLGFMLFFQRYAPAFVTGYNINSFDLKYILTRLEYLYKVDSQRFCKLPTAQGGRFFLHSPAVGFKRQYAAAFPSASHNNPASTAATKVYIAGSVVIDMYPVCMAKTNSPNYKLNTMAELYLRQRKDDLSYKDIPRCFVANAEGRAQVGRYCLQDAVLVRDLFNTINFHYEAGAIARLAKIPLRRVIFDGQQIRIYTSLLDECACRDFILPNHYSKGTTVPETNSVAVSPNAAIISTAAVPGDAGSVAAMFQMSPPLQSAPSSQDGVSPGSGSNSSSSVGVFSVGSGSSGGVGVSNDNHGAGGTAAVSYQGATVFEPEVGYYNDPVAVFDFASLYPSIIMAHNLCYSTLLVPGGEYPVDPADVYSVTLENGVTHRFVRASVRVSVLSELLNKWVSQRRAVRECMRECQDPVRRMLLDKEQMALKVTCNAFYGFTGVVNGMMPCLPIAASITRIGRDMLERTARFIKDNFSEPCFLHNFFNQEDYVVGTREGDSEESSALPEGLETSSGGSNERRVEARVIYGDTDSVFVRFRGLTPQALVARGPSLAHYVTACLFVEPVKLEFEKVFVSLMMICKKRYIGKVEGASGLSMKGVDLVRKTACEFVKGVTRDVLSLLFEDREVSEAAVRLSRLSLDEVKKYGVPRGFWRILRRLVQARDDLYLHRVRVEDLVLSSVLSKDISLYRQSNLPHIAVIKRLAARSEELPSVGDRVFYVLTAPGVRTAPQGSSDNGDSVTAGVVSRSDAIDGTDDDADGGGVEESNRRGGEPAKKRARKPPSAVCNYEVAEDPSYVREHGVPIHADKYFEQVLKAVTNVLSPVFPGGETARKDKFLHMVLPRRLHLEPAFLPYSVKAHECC
- PROTOCOL_SUMMARY: HCMV polymerase assay (scintillation proximity assay)
- Type: biochemical
- PARTICULARS: Table 9; read-out: CMV pol Assay- IC50
READOUT: log10(IC50) (log10 of the value in µM)
Recorded IC50 (log10, µM)

# count of solved cases: 10
INSERT INTO assay_data (compound, system, readout, recorded_result) VALUES
  ('CCCCCCCCNC(=O)c1ccc2cccnc2c1O', 'HCMV polymerase (Human cytomegalovirus, UniProt P08546)', 'log10(IC50)', 0.75),
  ('O=C(NCc1ccc(F)c(Cl)c1)c1ccc2cccnc2c1O', 'HCMV polymerase (Human cytomegalovirus, UniProt P08546)', 'log10(IC50)', 1.24),
  ('CCCCCCCCCCNC(=O)c1ccc2cccnc2c1O', 'HCMV polymerase (Human cytomegalovirus, UniProt P08546)', 'log10(IC50)', 0.85),
  ('O=C(NCc1c(Cl)cccc1Oc1ccccc1)c1ccc2cccnc2c1O', 'HCMV polymerase (Human cytomegalovirus, UniProt P08546)', 'log10(IC50)', 0.49),
  ('Cc1ccc(CCNC(=O)c2ccc3cccnc3c2O)cc1', 'HCMV polymerase (Human cytomegalovirus, UniProt P08546)', 'log10(IC50)', 1.23),
  ('O=C(NCCCc1ccccc1)c1ccc2cccnc2c1O', 'HCMV polymerase (Human cytomegalovirus, UniProt P08546)', 'log10(IC50)', 0.97),
  ('O=C(NCc1ccccc1C(F)(F)F)c1ccc2cccnc2c1O', 'HCMV polymerase (Human cytomegalovirus, UniProt P08546)', 'log10(IC50)', 1.20),
  ('O=C(NCCCCc1ccccc1)c1ccc2cccnc2c1O', 'HCMV polymerase (Human cytomegalovirus, UniProt P08546)', 'log10(IC50)', 0.87),
  ('CC1(C)C2CCC(CNC(=O)c3ccc4cccnc4c3O)C1C2 (stereo not shown)', 'HCMV polymerase (Human cytomegalovirus, UniProt P08546)', 'log10(IC50)', 0.18),
  ('O=C(NC1CCCc2ccccc21)c1ccc2cccnc2c1O (stereo not shown)', 'HCMV polymerase (Human cytomegalovirus, UniProt P08546)', 'log10(IC50)', 0.88);

[Q] log10(IC50) lookup needed for Cc1ccccc1CNC(=O)c1ccc2cccnc2c1O , thanks.
[A] 1.37

[Q] Record request: log10(IC50) value, item CC(NC(=O)c1ccc2cccnc2c1O)c1ccc(Br)cc1 (stereo not shown)
[A] 0.41

[Q] Give the measured log10(IC50) of CC1CCCC(NC(=O)c2ccc3cccnc3c2O)C1 (stereo not shown) .
[A] 1.31

[Q] Given the compound COc1cc(CNC(=O)c2ccc3cccnc3c2O)ccc1O , what is its reported log10(IC50)?
[A] 1.29

[Q] Please report the recorded log10(IC50) for O=C(NC1(CO)CCCC1)c1ccc2cccnc2c1O .
[A] 0.82

[Q] Which log10(IC50) value belongs to O=C(NCc1ccc(Cl)cc1Cl)c1ccc2cccnc2c1O ?
[A] 0.72

[Q] Returns the measured log10(IC50) for the input compound. Input: O=C(NCc1cccc(Cl)c1)c1ccc2cccnc2c1O
[A] 0.94

[Q] Record request: log10(IC50) value, item O=C(NCc1ccc(Cl)c(Cl)c1)c1ccc2cccnc2c1O
[A] 0.75

[Q] Any idea what its log10(IC50) is? The compound is CCCCCCCCCCCCCCCCCCNC(=O)c1ccc2cccnc2c1O
[A] 1.32

[Q] Dear colleague, I am looking for the recorded log10(IC50) of the following compound: CCCCCC(C)NC(=O)c1ccc2cccnc2c1O (stereo not shown)
[A] 0.90

[Q] # get_value(readout='log10(IC50)', item= O=C(NCCc1ccc(O)cc1)c1ccc2cccnc2c1O )
[A] 1.30

* * *

- SYSTEM: HCMV polymerase (Human cytomegalovirus, UniProt P08546)
- Construct: made in house; host or cells: recombinant baculovirus-infected SF-9 cells
- PROTOCOL_SUMMARY: HCMV polymerase assay (scintillation proximity assay)
- Type: biochemical
- PARTICULARS: pol type CMV; Table 1; read-out: CMV pol Assay IC50
READOUT: IC50 (µM)
Field format: number, assumed µM, no unit text.

Example results:
INSERT INTO results (compound, recorded_result) VALUES
  ('O=C(NCc1ccc(Cl)cc1)c1cc(Br)c2cccnc2c1O', 2.5),
  ('O=C(NC1=NC(=O)C(c2cccc(Cl)c2)S1)c1ccc2cccnc2c1O (centres unmarked)', 20.1),
  ('O=C(NCc1ccc(Cl)cc1)c1cc(F)c2cccnc2c1O', 5.8);

Continue with the compound presented below.
[Q] Quick check: IC50 on HCMV polymerase (Human cytomegalovirus, UniProt P08546), item O=C(NC1=NC(=O)C(c2ccc(Cl)cc2)S1)c1cc(Br)c2cccnc2c1O (centres unmarked) ?
[A] 4.1
